The values you see were collected from paper PMC6691786.

Parameter melting point: see the listing below.

Q) Given CC(NC(=O)c1cccc(C(=O)NC(C)C(=O)N/N=C2/C(=O)Nc3ccccc32)c1)C(=O)N/N=C1\C(=O)Nc2ccccc21 (stereo not drawn) [Compound 5] , state its recorded melting point.
A) 271 to 273 °C

Q) Need melting point, item CC(NC(=O)c1cccc(C(=O)NC(C)C(=O)NN2C(=O)CSC2c2ccc(Cl)cc2)c1)C(=O)NN1C(=O)CSC1c1ccc(Cl)cc1 (stereo not drawn) [Compound 14]
A) 218 to 220 °C

Q) Name the reported melting point value associated with the compound CC(NC(=O)c1cccc(C(=O)NC(C)C(=O)NN=Cc2ccc(Cl)cc2)c1)C(=O)NN=Cc1ccc(Cl)cc1 (stereo not drawn) [Compound 10]
A) 296 to 298 °C
